Data origin: ChEMBL document CHEMBL5665443

Documented inhibition across a set of compounds
Molecular target: Endonuclease 8-like 2 (Homo sapiens) (UniProt Q969S2);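 further: fluorescence at 594 nm reports NEIL2 cutting and release of a quenched double-stranded DNA oligo substrate, reduced signal read as inhibition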
Sequence (Q969S2 whole entry): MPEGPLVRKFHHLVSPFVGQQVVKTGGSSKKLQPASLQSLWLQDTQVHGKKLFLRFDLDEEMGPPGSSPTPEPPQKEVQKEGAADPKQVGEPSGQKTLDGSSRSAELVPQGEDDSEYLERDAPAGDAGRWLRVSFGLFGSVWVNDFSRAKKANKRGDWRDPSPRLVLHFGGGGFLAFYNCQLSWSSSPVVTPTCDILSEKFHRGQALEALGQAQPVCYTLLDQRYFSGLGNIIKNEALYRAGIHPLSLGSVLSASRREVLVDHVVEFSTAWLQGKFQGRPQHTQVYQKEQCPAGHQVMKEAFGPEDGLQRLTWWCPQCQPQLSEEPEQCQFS
Details: Compound Concentration 10.0 uM, Hit No
Description: Inhibition of NEIL2 by quantifying inhibition of NEIL2-mediated cleavage and dissociation of quenched duplex DNA oligonucleotides, measured as fluorescence at 594 nm.
quantity_name: inhibition

INSERT INTO results (smiles_structure, quantity_name, result) VALUES
  ('O=C(NCC1(N2CCN(c3ccccc3)CC2)CCOCC1)c1cccnc1Sc1ccccc1', 'inhibition', '-7.99%'),
  ('O=C(Cc1ccccc1)Nc1nc2ccc(Cl)cc2c2nc(-c3ccco3)nn12', 'inhibition', '-4.48%'),
  ('C[C@@H](NC(=O)Cc1ccc(C2CC2)cc1)c1ccc(OCC(F)(F)F)cn1', 'inhibition', '-6.21%'),
  ('Cc1cccc(S(=O)(=O)N(C)[C@H](C)CCN2CCC(C)CC2)c1', 'inhibition', '6.53%'),
  ('CN1CC(=O)N=C1NC(=O)Nc1cccc(Cl)c1', 'inhibition', '3.76%');
